tested on: Human immunodeficiency virus 1; test: Antiviral activity against HIV 1 3B infected in MT-4 cells assessed as inhibition of virus-induced cytopathic effect by MTT assay; assay type: functional, organism-based; conditions: Human immunodeficiency virus 1, 3B, MT4
Lab note: anything with EC50 below 20 nM is marked class 1; values at 20 nM or higher are marked class 0.

IN: Please determine if c1cc(CN2CCCNCCNCCCNCC2)ccc1CN1CCCNCCNCCCNCC1 is below 20 nM in terms of EC50.
OUT: class 0

IN: Please determine if COc1cccc2c1c(C(=O)/C=C(\O)C(=O)O)cn2Cc1ccc(F)cc1 is below 20 nM in terms of EC50.
OUT: class 0

IN: Please determine if COc1cc2c(cc1Cc1cccc(Cl)c1F)c(=O)c(C(=O)O)cn2[C@H](CO)C(C)C is below 20 nM in terms of EC50.
OUT: class 1

IN: Please determine if O=C(NCc1ccc(F)cc1)c1nc(N2CCCCS2(=O)=O)c2cccnc2c1O is below 20 nM in terms of EC50.
OUT: class 1

IN: Please determine if Cc1cn([C@H]2C[C@H](N=[N+]=[N-])[C@@H](CO)O2)c(=O)[nH]c1=O is below 20 nM in terms of EC50.
OUT: class 1

IN: Please determine if CC(C)c1nc(CN(C)C(=O)N[C@H](C(=O)N[C@@H](Cc2ccccc2)C[C@H](O)[C@H](Cc2ccccc2)NC(=O)OCc2cncs2)C(C)C)cs1 is below 20 nM in terms of EC50.
OUT: class 0

IN: Please determine if Cc1ccnc2c1NC(=O)c1cccnc1N2C1CC1 is below 20 nM in terms of EC50.
OUT: class 0

Every entry's value here was drawn from ChEMBL document CHEMBL1255362.
